Entries annotated with measured SODIUM
Organism: Rattus norvegicus
EXPERIMENTAL_PROTOCOL: DrugMatrix - Regimen: Daily Repeat
Assay type: toxicity, organism-based, Sprague-Dawley
Parameters: regimen Daily Repeat, gender Male, age 6-8 weeks
CONDITION_SUMMARY: in vivo, po, 10 mg/kg, 120 h, tissue Plasma, route oral GAVAGE, dose level Low, time 5 day, vehicle .5 % CMC
Report the value in MEQ/L with no unit label.

The examples below pair each entry with its known result.
- COMPOUND: "COc1c(C)c2c(c(O)c1C/C=C(\\C)CCC(=O)OCCN1CCOCC1)C(=O)OC2 [MYCOPHENOLATE MOFETIL]"
  REPORTED_RESULT: 144.83
- COMPOUND: "O=C1CN=C(c2ccccc2)c2cc([N+](=O)[O-])ccc2N1"
  REPORTED_RESULT: 147.33
- COMPOUND: "CC(=O)O[C@]1(C(C)=O)CC[C@H]2[C@@H]3C=C(Cl)C4=CC(=O)CC[C@]4(C)[C@H]3CC[C@@]21C [CHLORMADINONE ACETATE]"
  REPORTED_RESULT: 146.13

Data point: NS(=O)(=O)c1cc2c(cc1Cl)NCNS2(=O)=O [HYDROCHLOROTHIAZIDE] ; SODIUM = 143.33

This collection of values is drawn from ChEMBL document CHEMBL3885881.
